# System: STING (IFN-β in hPBMC)
# assay: hPBMC cytokine functional assay (IFN-β decrease after Baculovirus stimulation)
# Format: cell-based
# experimental-context: Homo sapiens, Baculovirus MOI 40, 24 hours, read-out: hPBMC_IC50
Please go through the items and note down their pIC50.
Interpret pIC50 as the negative base-10 log of the concentration measured in mol/L.

Kindly note the recorded pIC50 for CN1CCCc2c3c(cccc3nn2C)-c2cccc(n2)O[C@H]2C[C@@H](C1=O)N(c1ncnc3c1cnn3-c1ccc(F)cc1F)C2 , which is 5.80

# pIC50 (compound: Cn1nc2cccc3c2c1CCCN(CCCn1cnnn1)C(=O)[C@@H]1C[C@@H](CN1c1ncnc2c1cnn2-c1ccc(F)cc1F)Oc1cccc-3c1 ) is 5.80

The compound listed as CN(C)CCN1CCCc2c3c(cccc3nn2C)-c2cccc(c2)O[C@H]2C[C@@H](C1=O)N(c1ncnc3c1cnn3-c1ccc(F)cc1F)C2 shows pIC50 equal to 6.15

====

# System: STING (IFN-β in hPBMC)
# assay: hPBMC cytokine functional assay (IFN-β decrease after Baculovirus stimulation)
# Assay type: cell-based
# experimental-context: Homo sapiens, Baculovirus MOI 40, 24 hours, read-out: hPBMC_IC50
So basically, if IC50 comes in under 500 nM it's Y, and if it's 500 nM or more it's N.

*Q* Field: below-cutoff. Rule: recorded IC50 strictly less than 500 nM. Subject: Cn1nc2cccc3c2c1CCCN(CC1CC1)C(=O)[C@@H]1C[C@@H](CN1c1ncnc2c1cnn2-c1ccc(F)cc1F)Oc1cccc-3c1
*A* Y

*Q* Just wondering, is IC50 of Cn1nc2cccc3c2c1CCCN(CCCN1CC2(COC2)C1)C(=O)[C@@H]1C[C@@H](CN1c1ncnc2c1cnn2-c1ccc(F)cc1F)Oc1cccc-3c1 below 500 nM?
*A* N

*Q* Please check: IC50 for COc1cc2nc(c1)-c1cccc3nn(C)c(c13)CCCN(C)C(=O)[C@@H]1C[C@@H](CN1c1ncnc3c1cnn3-c1ccc(F)cc1OC)N2 , strictly under 500 nM or not?
*A* Y

*Q* Report whether reported IC50 is lower than 500 nM (strictly) for CN1CCN(CCCN2CCCc3c4c(cccc4nn3C)-c3cccc(c3)O[C@H]3C[C@@H](C2=O)N(c2ncnc4c2cnn4-c2ccc(F)cc2F)C3)CC1
*A* N

*Q* # check: IC50 < 500 nM for CN1CCCc2c3c(cccc3nn2C)-c2cccc(c2)O[C@H]2C[C@@H](C1=O)N(c1ncnc3c1cnn3-c1ccc(F)cc1F)C2
*A* N

*Q* Below 500 nM on IC50? Entry COc1cc(F)ccc1-n1ncc2c(N3C[C@@H]4C[C@H]3C(=O)N(C)CCCc3c5c(cc(F)cc5nn3C)-c3ccnc(n3)O4)ncnc21
*A* N

*Q* A record lists Cn1nc2cccc3c2c1CCCN(CC1CC1)C(=O)[C@@H]1C[C@@H](CN1c1ncnc2c1cnn2-c1ccc(F)cc1F)Oc1nccc-3n1 . Is its IC50 below 500 nM?
*A* N

*Q* I wonder whether Cn1nc2cc(F)cc3c2c1CCCN(CCN1CCOCC1)C(=O)[C@@H]1C[C@@H](CN1c1ncnc2c1cnn2-c1ccc(F)cc1F)Oc1cccc-3c1 has IC50 below 500 nM. Can you tell?
*A* N

*Q* Could you please tell me whether IC50 recorded for Cn1nc2cccc3c2c1CCCN(CCO)C(=O)[C@@H]1C[C@@H](CN1c1ncnc2c1cnn2-c1ccc(F)cc1F)Oc1cccc-3c1 is less than 500 nM?
*A* Y

*Q* Record COc1cc2nc(c1)-c1cccc3nn(C)c(c13)CCCN(C)C(=O)[C@@H]1C[C@@H](CN1c1ncnc3c1cnn3-c1ccc(F)cc1F)N2 : is its IC50 strictly below 500 nM?
*A* Y

*Q* Check if IC50 falls below 500 nM for Cn1cnc(CN2CCCc3c4c(cccc4nn3C)-c3cccc(c3)O[C@H]3C[C@@H](C2=O)N(c2ncnc4c2cnn4-c2ccc(F)cc2F)C3)n1 .
*A* Y

*Q* Below 500 nM on IC50? Entry Cn1nc2cccc3c2c1CCCN(CCCc1ccccc1)C(=O)[C@@H]1C[C@@H](CN1c1ncnc2c1cnn2-c1ccc(F)cc1F)Oc1cccc-3c1
*A* Y

*Q* Answer whether the molecule Cn1nc2cccc3c2c1CCCN(CCOCc1ccncc1)C(=O)[C@@H]1C[C@@H](CN1c1ncnc2c1cnn2-c1ccc(F)cc1F)Oc1cccc-3c1 has IC50 strictly less than 500 nM
*A* Y

*Q* For Cn1nc2cccc3c2c1CCCN(CCCO)C(=O)[C@@H]1C[C@@H](CN1c1ncnc2c1cnn2-c1ccc(F)cc1F)Oc1cccc-3c1 , is the recorded IC50 below the cut-off of 500 nM?
*A* Y

*Q* Does the reported IC50 of the following molecule sit strictly below 500 nM? COc1cc(F)ccc1-n1ncc2c(N3C[C@@H]4C[C@H]3C(=O)N(CCCN3CCOCC3)CCCc3c5c(cccc5nn3C)-c3cccc(n3)N4)ncnc21
*A* Y

*Q* Say whether its IC50 is strictly beneath 500 nM. Entry: COc1cc(F)ccc1-n1ncc2c(N3C[C@@H]4C[C@H]3C(=O)N(CCCN3CCOCC3)CCCc3c5c(ccc(F)c5nn3C)-c3cccc(n3)N4)ncnc21
*A* N

*Q* In plain terms, does Cn1nc2cccc3c2c1CCCN(CCCN1CCN(S(C)(=O)=O)CC1)C(=O)[C@@H]1C[C@@H](CN1c1ncnc2c1cnn2-c1ccc(F)cc1F)Oc1cccc-3c1 come in under 500 nM for IC50?
*A* Y

*Q* Here's an entry: Cn1nc2c(F)ccc3c2c1CCCN(CCCN1CCOCC1)C(=O)[C@@H]1C[C@@H](CN1c1ncnc2c1cnn2-c1ccc(F)cc1F)Nc1cccc-3n1 . Is its IC50 below 500 nM?
*A* Y

*Q* Hello, I'm reviewing records and need to know if IC50 of COCCN1CCCc2c3c(cccc3nn2C)-c2cccc(c2)O[C@H]2C[C@@H](C1=O)N(c1ncnc3c1cnn3-c1ccc(F)cc1F)C2 is below 500 nM. Could you check?
*A* Y

*Q* Find out if reported IC50 for CN1CCCc2c3c(cccc3nn2C)-c2cccc(n2)N[C@H]2C[C@@H](C1=O)N(c1ncnc3c1cnn3-c1ccc(F)cc1F)C2 is less than 500 nM
*A* Y

*Q* API: query returns whether the molecule falls strictly under 500 nM in IC50. Query: CN1CCCc2c3c(cccc3nn2C)-c2ccnc(n2)N[C@H]2C[C@@H](C1=O)N(c1nccn3c(-c4ccc(F)cc4F)ncc13)C2
*A* Y

====

Record form. Attribute: Cmax. Fill in for each entry.
# assay: Single dose pharmacokinetics (SDPK) study in male C57BL/6J mice
# Format: in vivo
# experimental-context: male, C57BL/6J, plasma; mouse, PO 10 mg/kg
// note: answer is a bare numeric in µg/mL

The measured Cmax associated with COc1cc(F)ccc1-n1ncc2c(N3C[C@@H]4C[C@H]3C(=O)N(C)CCCc3c5c(cccc5nn3C)-c3ccnc(n3)N4)ncnc21 reads 2.99

response.value for CN1CCCc2c3c(cccc3nn2C)-c2ccnc(n2)O[C@H]2C[C@@H](C1=O)N(c1ncnc3c1cnn3-c1ccc(F)cc1F)C2 (field: Cmax) = 2.78

====

# target-desc: human stimulator of interferon genes (STING) (139-379) (Homo sapiens (Human), UniProt Q86WV6)
# Sequence (Q86WV6 139-379): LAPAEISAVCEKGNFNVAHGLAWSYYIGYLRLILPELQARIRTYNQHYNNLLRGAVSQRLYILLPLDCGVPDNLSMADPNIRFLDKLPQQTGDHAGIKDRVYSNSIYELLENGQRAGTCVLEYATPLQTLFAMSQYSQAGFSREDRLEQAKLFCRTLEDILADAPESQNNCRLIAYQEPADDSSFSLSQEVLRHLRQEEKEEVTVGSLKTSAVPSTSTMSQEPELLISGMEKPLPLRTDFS
Sorting guide: entries reporting IC50 beneath 4 nM go in the 1.0 pile, the rest go in the 0.0 pile.

*Q* Lab log: compare recorded IC50 with 4 nM; is it strictly lower for Cn1nc2cccc3c2c1CCCN(CCCN1CCOCC1)C(=O)[C@@H]1C[C@@H](CN1c1ncnc2c1cnn2-c1ccc(F)cc1F)Oc1cccc-3c1 ?
*A* 1.0

*Q* Dear reviewer, please state whether COc1cc(F)ccc1-n1ncc2c(N3C[C@@H]4C[C@H]3C(=O)N(CCCN3CCOCC3)CCCc3c5c(cccc5nn3C)-c3cccc(n3)N4)ncnc21 has IC50 strictly beneath 4 nM.
*A* 1.0

*Q* Check if IC50 falls below 4 nM for CN1CC2CC1CN2CCCN1CCCc2c3c(cccc3nn2C)-c2cccc(c2)O[C@H]2C[C@@H](C1=O)N(c1ncnc3c1cnn3-c1ccc(F)cc1F)C2 .
*A* 0.0

*Q* Please indicate whether the reported IC50 of Cn1nc2c(F)ccc3c2c1CCCN(CCCN1CCOCC1)C(=O)[C@@H]1C[C@@H](CN1c1ncnc2c1cnn2-c1ccc(F)cc1F)Nc1cccc-3n1 is strictly below 4 nM.
*A* 0.0

*Q* In the record for Cn1nc2cccc3c2c1CCCN(CCO)C(=O)[C@@H]1C[C@@H](CN1c1ncnc2c1cnn2-c1ccc(F)cc1F)Oc1cccc-3c1 , is IC50 less than 4 nM?
*A* 1.0

====

Task for the reader: assign each of the following compounds its reported pIC50.
# target-desc: human stimulator of interferon genes (STING) (139-379) (Homo sapiens (Human), UniProt Q86WV6)
# log scale: pIC50 equals minus log10 of the concentration in mol/L

// Cn1nc2cccc3c2c1CCCN(CCCO)C(=O)[C@@H]1C[C@@H](CN1c1ncnc2c1cnn2-c1ccc(F)cc1F)Nc1cccc-3n1 : pIC50 value = 8.28

Consider Cn1nc2cccc3c2c1CCCN(CCC(C)(C)O)C(=O)[C@@H]1C[C@@H](CN1c1ncnc2c1cnn2-c1ccc(F)cc1F)Oc1cccc-3c1 . Its measured pIC50 is 8.07

pIC50 for Cn1nc2cccc3c2c1CCCN(CCCn1ccnc1)C(=O)[C@@H]1C[C@@H](CN1c1ncnc2c1cnn2-c1ccc(F)cc1F)Oc1cccc-3c1 is 9.05

// provenance: patent US20260070927A1
